system: kinases; assay: Kinase selectivity using Z'-LYTE or Adapta; assay type: biochemical; settings: 1 μM of Example; Z-LYTE platform
metricName: percent inhibition MAPK8 (JNK1) (%)
Dear colleague, please return just the value in %, with no unit written.

Prompt: Which measured percent inhibition MAPK8 (JNK1) value corresponds to CC(C)Oc1ccc2[nH]nc(-c3cc(N4CCOCC4)ncn3)c2c1 [Example D6] ?
Completion: 28

Prompt: Consider next the compound CC(C)Oc1cc2c(-c3cc(N4CCN(C)CC4)ncn3)n[nH]c2cc1F [Example D25] in the same way.
Completion: 56

Prompt: Consider next the compound CC(C)Oc1ccc2[nH]nc(-c3cc(N4CCN(CCF)CC4)ncn3)c2c1 [Example D15] in the same way.
Completion: 56

Prompt: Consider next the compound CC(C)Oc1ccc2[nH]nc(-c3cc(N4CCO[C@H](C)C4)ncn3)c2c1 [Example D2] in the same way.
Completion: 28

----------
Give measured IC50 for each item. Keep answers brief.
target: LRRK2(G2019S mutation, GST-LRRK2(amino acids 970-2527)) (Homo sapiens (Human), UniProt Q5S007, G2019S); assay: LRRK2 5 mM ATP LanthaScreen Assay; type: biochemical
Sequence (Q5S007 970-2527 G2019S): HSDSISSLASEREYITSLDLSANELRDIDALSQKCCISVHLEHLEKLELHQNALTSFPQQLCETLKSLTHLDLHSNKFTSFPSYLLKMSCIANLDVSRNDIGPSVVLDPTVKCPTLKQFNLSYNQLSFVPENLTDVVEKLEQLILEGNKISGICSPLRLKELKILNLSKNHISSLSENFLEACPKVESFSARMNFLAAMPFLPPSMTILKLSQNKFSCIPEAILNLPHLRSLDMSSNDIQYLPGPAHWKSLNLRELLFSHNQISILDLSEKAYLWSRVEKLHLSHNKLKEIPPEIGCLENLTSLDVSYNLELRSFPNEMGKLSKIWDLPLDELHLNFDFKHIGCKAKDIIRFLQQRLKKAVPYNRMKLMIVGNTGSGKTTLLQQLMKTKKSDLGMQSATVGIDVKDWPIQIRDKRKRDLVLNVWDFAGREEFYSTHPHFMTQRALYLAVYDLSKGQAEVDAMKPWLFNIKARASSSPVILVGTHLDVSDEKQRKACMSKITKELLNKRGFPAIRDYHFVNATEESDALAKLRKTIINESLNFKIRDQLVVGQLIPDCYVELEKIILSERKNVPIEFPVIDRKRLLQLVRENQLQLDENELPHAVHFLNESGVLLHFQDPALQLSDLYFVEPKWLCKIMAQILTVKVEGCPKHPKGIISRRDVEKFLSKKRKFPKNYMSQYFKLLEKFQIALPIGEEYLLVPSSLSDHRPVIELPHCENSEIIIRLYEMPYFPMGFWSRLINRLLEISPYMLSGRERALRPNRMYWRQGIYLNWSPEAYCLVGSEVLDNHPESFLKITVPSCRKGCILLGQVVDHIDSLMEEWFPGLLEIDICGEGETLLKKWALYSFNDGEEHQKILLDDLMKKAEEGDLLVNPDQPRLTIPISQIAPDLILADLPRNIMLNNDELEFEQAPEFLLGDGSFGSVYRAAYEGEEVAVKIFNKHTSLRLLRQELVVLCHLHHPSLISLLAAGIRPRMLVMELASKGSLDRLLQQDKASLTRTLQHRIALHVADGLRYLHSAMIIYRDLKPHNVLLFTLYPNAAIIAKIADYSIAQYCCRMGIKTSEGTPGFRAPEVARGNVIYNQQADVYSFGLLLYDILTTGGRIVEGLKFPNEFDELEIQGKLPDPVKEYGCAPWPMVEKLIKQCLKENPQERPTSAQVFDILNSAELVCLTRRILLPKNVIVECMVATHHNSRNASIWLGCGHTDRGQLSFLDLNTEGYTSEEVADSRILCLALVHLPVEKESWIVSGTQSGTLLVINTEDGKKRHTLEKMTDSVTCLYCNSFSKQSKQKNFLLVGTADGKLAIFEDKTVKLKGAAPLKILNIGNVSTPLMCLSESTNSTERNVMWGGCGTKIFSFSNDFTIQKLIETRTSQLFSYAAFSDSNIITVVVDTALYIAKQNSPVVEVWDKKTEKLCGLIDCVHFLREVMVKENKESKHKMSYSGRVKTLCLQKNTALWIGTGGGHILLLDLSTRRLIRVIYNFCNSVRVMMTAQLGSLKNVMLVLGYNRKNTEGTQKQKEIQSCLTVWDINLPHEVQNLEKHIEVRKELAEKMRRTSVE
Dear colleague, please return just the value in nM, with no unit written.

Prompt: Which measured IC50 value corresponds to CC(C)Oc1ccc2[nH]nc(-c3cc(N4CCO[C@H](C)C4)ncn3)c2c1 [Example D2] ?
Completion: 67

Prompt: Consider next the compound "CC(C)Oc1ccc2[nH]nc(-c3cc(N4CCOCC4)ncn3)c2c1" in the same way.
Completion: 96

Prompt: Consider next the compound "CC(C)Oc1cc2c(-c3cc(N4C[C@@H](C)O[C@@H](C)C4)ncn3)n[nH]c2cc1F" in the same way.
Completion: 22

----------
target: LRRK2(G2019S mutation, GST-LRRK2(amino acids 970-2527)) (Homo sapiens (Human), UniProt Q5S007, G2019S); experiment: LRRK2 Km ATP LanthaScreen Assay; assay type: biochemical; details: Km ATP (184 μM ATP solution), G2019S LRRK2, mean IC50
metricName: IC50 (nM)
Dear colleague, please return just the value in nM, with no unit written.

Prompt: Which measured IC50 value corresponds to CCN1CCN(c2cc(-c3n[nH]c4cc(F)c(OC(C)C)cc34)ncn2)CC1 [Example D46] ?
Completion: 2.97

Prompt: Consider next the compound COC[C@H](C)Oc1ccc2[nH]nc(-c3cc(N4CC5CCC(C4)O5)ncn3)c2c1 [Example H8] in the same way.
Completion: 9.93

Prompt: Consider next the compound COC[C@@H](C)Oc1ccc2[nH]nc(-c3cc(N4CCOCC4)ncn3)c2c1 [Example H1] in the same way.
Completion: 56.2

Prompt: Consider next the compound Cn1cc(-c2ccc3[nH]nc(-c4cc(N5CC[C@H](CO)C5)ncn4)c3c2)cn1 [Example M5] in the same way.
Completion: 2.5

Prompt: Consider next the compound Cc1nc2c(o1)CCN(c1cc(-c3n[nH]c4cc(F)c(-c5cnn(C)c5)cc34)ncn1)C2 [Example L17] in the same way.
Completion: 53.4

Prompt: Consider next the compound Cn1cc(-c2ccc3[nH]nc(-c4cc(N5CC[S+]([O-])CC5)ncn4)c3c2)cn1 [Example M11] in the same way.
Completion: 26.8

Prompt: Consider next the compound CC(C)Oc1ccc2[nH]nc(-c3cc(N4CCN(Cc5ccncc5)CC4)ncn3)c2c1 [Example K16] in the same way.
Completion: 8.2

Prompt: Consider next the compound Cc1noc(C2CN(c3cc(-c4n[nH]c5ccc(OC(C)C)cc45)ncn3)C2)n1 [Example J22] in the same way.
Completion: 9.3

Prompt: Consider next the compound Cn1cc(-c2ccc3[nH]nc(-c4cc(N5CC6CCC(C5)O6)ncn4)c3c2)cn1 [Example A10] in the same way.
Completion: 5.18

Prompt: Consider next the compound CCN1CCN(c2cc(-c3n[nH]c4ccc(OC(C)C)cc34)ncn2)CC1 [Example K3] in the same way.
Completion: 6

Prompt: Consider next the compound COC[C@H](C)Oc1ccc2[nH]nc(-c3cc(N4CCC5(CCN(C)C5=O)CC4)ncn3)c2c1 [Example H15] in the same way.
Completion: 3.71

Prompt: Consider next the compound Cn1cc(-c2cc3c(-c4cc(N5CCN(CCCO)CC5)ncn4)n[nH]c3cc2F)cn1 [Example L25] in the same way.
Completion: 12.6

Prompt: Consider next the compound Cn1cc(-c2ccc3[nH]nc(-c4cc(N5CC[C@@H](CO)C5)ncn4)c3c2)cn1 [Example M7] in the same way.
Completion: 2.9

Prompt: Consider next the compound CC(C)Oc1ccc2[nH]nc(-c3cc(N4CCC(F)(F)CC4)ncn3)c2c1 [Example D5] in the same way.
Completion: 14.8

Prompt: Consider next the compound COc1ccc2[nH]nc(-c3cc(N4C[C@@H](C)O[C@@H](C)C4)ncn3)c2c1 [Example E3] in the same way.
Completion: 29.3

Prompt: Consider next the compound COCCOc1ccc2[nH]nc(-c3cc(N4CCNC(=O)C4)ncn3)c2c1 [Example G6] in the same way.
Completion: 136

Prompt: Consider next the compound CC(C)Oc1cc2c(-c3cc(N4CC[C@@H](N)C4)ncn3)n[nH]c2cc1F [Example D58] in the same way.
Completion: 7.3
